# key: entry, value: growth
# System: Escherichia coli IAI1
# assay: growth (OD595) fold change vs plate DMSO controls (fold change (ratio)); higher = more growth
# run-conditions: incubation time: 27 h, anaerobic, 37 °C
Where a name gives a salt, the structure may show the parent alone.

The examples below pair each entry with its known result.
compound	growth
CC(=O)N(CC(O)CO)c1c(I)c(C(=O)NCC(O)CO)c(I)c(C(=O)NCC(O)CO)c1I (centres undefined) [Iohexol] (20 µM)	1.02
C[C@@H](NCCCc1cccc(C(F)(F)F)c1)c1cccc2ccccc12 [Cinacalcet hydrochloride] (20 µM)	1.02
O=C(CO)[C@@H](O)[C@H](O)[C@@H](CO)O[C@H]1O[C@H](CO)[C@@H](O)[C@H](O)[C@H]1O [Leucrose] (50 µM)	0.999
O=C1CC[C@@H](C(=O)N2CSC[C@H]2C(=O)O)N1 [Pidotimod] (20 µM)	0.987
O=P(O)(O)C(Cl)(Cl)P(=O)(O)O [Clodronate disodium] (20 µM)	1.03

## Task Look up growth for this compound: O=C1c2ccccc2C(=O)C1c1ccccc1 [Phenindione] (20 µM)
## Result 0.963

## Task Look up growth for this compound: CN1CCN(CCCN2c3ccccc3Sc3ccc(C(F)(F)F)cc32)CC1 [Trifluoperazine dihydrochloride] (20 µM)
## Result 1.08

## Task Look up growth for this compound: CC1(C)S[C@@H]2[C@H](NC(=O)C(c3ccccc3)S(=O)(=O)O)C(=O)N2[C@H]1C(=O)O (some centres undefined) [Sulbenicillin sodium salt] (20 µM)
## Result 0.378

## Task Look up growth for this compound: C[C@H]1O[C@H](O[C@H]2[C@H](O)[C@@H](O)[C@@H](O[C@@H]([C@H](O)[C@@H](O)C=O)[C@H](O)CO)O[C@@H]2CO)[C@H](O)[C@@H](O)[C@@H]1N[C@H]1C=C(CO)[C@@H](O)[C@H](O)[C@H]1O [Acarbose] (20 µM)
## Result 1.03

## Task Look up growth for this compound: CNNCc1ccc(C(=O)NC(C)C)cc1 [Procarbazine hydrochloride] (20 µM)
## Result 1.07
